test system: DIGITA; assay: Pre-emergence herbicidal action; format: in vivo, Digitaria; design: key: 1=total damage; 9=no action; conditions: 250 g of active ingredient per ha, sprayed immediately after sowing, evaluated after 3 weeks; scale of nine ratings, 1 to 4 good to very good action
OBSERVABLE: Pre-emergence action DIGITA, rating

COMPOUND | TARGET | Pre-emergence action DIGITA, rating
COCCN(C1=C(C(=O)c2ccc(C(F)(F)F)nc2C)C(=O)C2CCC1C2)S(C)(=O)=O (stereo not shown) | DIGITA | 1

Hey, can you go through the list below and give me Pre-emergence action DIGITA, rating for every item?
1. Cc1nc(C(F)(F)F)ccc1C(=O)C1=C(N(Cc2ccccc2)S(=O)(=O)C(C)C)C2CCC(C2)C1=O (stereo not shown)
2. COCCN(C1=C(C(=O)c2ccc(C(F)(F)F)nc2C)C(=O)C(C)(C)C(=O)C1(C)C)S(C)(=O)=O
3. COCCN(C1=C(C(=O)c2ccc(C(F)(F)F)nc2C)C(=O)C2CCC1C2)S(=O)(=O)c1ccccc1 (stereo not shown)

OUTPUT:
1. 1
2. 1
3. 2

* * *

tested on: AMARAN; experiment: Pre-emergence herbicidal action; type: in vivo, Amaranthus; settings: 250 g of active ingredient per ha, sprayed immediately after sowing, evaluated after 3 weeks; scale of nine ratings, 1 to 4 good to very good action
For each record, write down the corresponding Pre-emergence action AMARAN, rating.

MOLECULE | VALUE_REPORTED
Cc1nc(C(F)(F)F)ccc1C(=O)C1=C(N(Cc2ccccc2)S(=O)(=O)c2ccccc2)C2CCC(C2)C1=O (stereo not shown) | 3
CCS(=O)(=O)N(Cc1ccccc1)C1=C(C(=O)c2ccc(C(F)(F)F)nc2C)C(=O)C2CCC1C2 (stereo not shown) | 2
COCCN(C1=C(C(=O)c2ccc(C(F)(F)F)nc2C)C(=O)C(C)(C)C(=O)C1(C)C)S(C)(=O)=O | 1

We next turn to a different molecule, shown below.
INPUT: Lab note: need Pre-emergence action AMARAN, rating for Cc1nc(C(F)(F)F)ccc1C(=O)C1=C(N(Cc2ccccc2)S(=O)(=O)C(C)C)C2CCC(C2)C1=O (stereo not shown) on AMARAN, anyone have it?
OUTPUT: 2

* * *

test system: DIGITA; test: Post-emergence herbicidal action; type: in vivo, Digitaria; details: 250 g of active ingredient per ha, sprayed at 4- to 6-leaf stage, evaluated after about 18 days; scale of nine ratings, 1 to 4 good to very good action
For each entry below, report its Post-emergence action DIGITA, rating value.
One number for each entry.

COMPOUND | Post-emergence action DIGITA, rating
CCS(=O)(=O)N(Cc1ccccc1)C1=C(C(=O)c2ccc(C(F)(F)F)nc2C)C(=O)C2CCC1C2 (centres unmarked) [Example 1.065] | 2
CCS(=O)(=O)N(CCOC)C1=C(C(=O)c2ccc(C(F)(F)F)nc2C)C(=O)C(C)(C)C(=O)C1(C)C [Example 1.007] | 1
COCCN(C1=C(C(=O)c2ccc(C(F)(F)F)nc2C)C(=O)C(C)(C)C(=O)C1(C)C)S(C)(=O)=O [Example 1.001] | 1
CCS(=O)(=O)N(CCOC)C1=C(C(=O)c2ccc(C(F)(F)F)nc2C)C(=O)C2CCC1C2 (centres unmarked) [Example 1.013] | 2

Switching to the query record.
INPUT: Give Post-emergence action DIGITA, rating (DIGITA) of the following compound: COCCN(C1=C(C(=O)c2ccc(C(F)(F)F)nc2C)C(=O)C2CCC1C2)S(C)(=O)=O (centres unmarked) [Example 1.012]
OUTPUT: 2

* * *

system: DIGITA; experiment: Pre-emergence herbicidal action; format: in vivo, Digitaria; set-up: key: 1=total damage; 9=no action; conditions: 250 g of active ingredient per ha, sprayed immediately after sowing, evaluated after 3 weeks; scale of nine ratings, 1 to 4 good to very good action
Assign Pre-emergence action DIGITA, rating to each entry below.
Answers are plain numbers.

COMPOUND | TARGET | Pre-emergence action DIGITA, rating
CCS(=O)(=O)N(CCOC)C1=C(C(=O)c2ccc(C(F)(F)F)nc2C)C(=O)C(C)(C)C(=O)C1(C)C | DIGITA | 1
CCS(=O)(=O)N(CCOC)C1=C(C(=O)c2ccc(C(F)(F)F)nc2C)C(=O)C2CCC1C2 (stereo not shown) | DIGITA | 1
CCS(=O)(=O)N(Cc1ccccc1)C1=C(C(=O)c2ccc(C(F)(F)F)nc2C)C(=O)C2CCC1C2 (stereo not shown) | DIGITA | 1

# input for lookup
INPUT: Give the measured Pre-emergence action DIGITA, rating of Cc1nc(C(F)(F)F)ccc1C(=O)C1=C(N(Cc2ccccc2)S(=O)(=O)c2ccccc2)C2CCC(C2)C1=O (stereo not shown) .
OUTPUT: 3

* * *

system: CHENOP; test: Pre-emergence herbicidal action; format: in vivo, Chenopodium; parameters: key: 1=total damage; 9=no action; details: 250 g of active ingredient per ha, sprayed immediately after sowing, evaluated after 3 weeks; scale of nine ratings, 1 to 4 good to very good action
OBSERVABLE: Pre-emergence action CHENOP, rating

The examples below pair each entry with its known result.
COMPOUND | Pre-emergence action CHENOP, rating
COCCN(C1=C(C(=O)c2ccc(C(F)(F)F)nc2C)C(=O)C2CCC1C2)S(=O)(=O)c1ccccc1 (stereo not shown) | 9
Cc1nc(C(F)(F)F)ccc1C(=O)C1=C(N(Cc2ccccc2)S(=O)(=O)C(C)C)C2CCC(C2)C1=O (stereo not shown) | 1
Cc1nc(C(F)(F)F)ccc1C(=O)C1=C(N(Cc2ccccc2)S(=O)(=O)c2ccccc2)C2CCC(C2)C1=O (stereo not shown) | 2
CCS(=O)(=O)N(CCOC)C1=C(C(=O)c2ccc(C(F)(F)F)nc2C)C(=O)C(C)(C)C(=O)C1(C)C | 1
CCS(=O)(=O)N(CCOC)C1=C(C(=O)c2ccc(C(F)(F)F)nc2C)C(=O)C2CCC1C2 (stereo not shown) | 1
COCCN(C1=C(C(=O)c2ccc(C(F)(F)F)nc2C)C(=O)C(C)(C)C(=O)C1(C)C)S(C)(=O)=O | 1

With those in mind, consider the next compound.
INPUT: Which Pre-emergence action CHENOP, rating value belongs to CCS(=O)(=O)N(Cc1ccccc1)C1=C(C(=O)c2ccc(C(F)(F)F)nc2C)C(=O)C2CCC1C2 (stereo not shown) ?
OUTPUT: 2

* * *

Test system: AMARAN
Experiment: Pre-emergence herbicidal action
Type: in vivo, Amaranthus
Design: key: 1=total damage; 9=no action
Details: 250 g of active ingredient per ha, sprayed immediately after sowing, evaluated after 3 weeks; scale of nine ratings, 1 to 4 good to very good action
Description: Monocotyledonous and dicotyledonous test plants are sown in standard soil in plastic pots. […] After a test duration of 3 weeks, the test is evaluated in accordance with a scale of nine ratings (1=total damage, 9=no action). […]
Would you mind telling me the reported Pre-emergence action AMARAN, rating of each entry?

Give Pre-emergence action AMARAN, rating for each listed item.
1. CCS(=O)(=O)N(CCOC)C1=C(C(=O)c2ccc(C(F)(F)F)nc2C)C(=O)C(C)(C)C(=O)C1(C)C
2. COCCN(C1=C(C(=O)c2ccc(C(F)(F)F)nc2C)C(=O)C2CCC1C2)S(C)(=O)=O (stereo not shown)
3. CCS(=O)(=O)N(CCOC)C1=C(C(=O)c2ccc(C(F)(F)F)nc2C)C(=O)C2CCC1C2 (stereo not shown)
4. COCCN(C1=C(C(=O)c2ccc(C(F)(F)F)nc2C)C(=O)C2CCC1C2)S(=O)(=O)c1ccccc1 (stereo not shown)

OUTPUT:
1
1
1
2

* * *

Test system: SETARI
Experiment: Pre-emergence herbicidal action
Assay type: in vivo, Setaria
Details: 250 g of active ingredient per ha, sprayed immediately after sowing, evaluated after 3 weeks; scale of nine ratings, 1 to 4 good to very good action
Method: Monocotyledonous and dicotyledonous test plants are sown in standard soil in plastic pots. […] After a test duration of 3 weeks, the test is evaluated in accordance with a scale of nine ratings (1=total damage, 9=no action). […]
Assignment: determine reported Pre-emergence action SETARI, rating for the given molecules.
Numbers only.

# annotated cases, reported Pre-emergence action SETARI, rating shown
MOLECULE | Pre-emergence action SETARI, rating
COCCN(C1=C(C(=O)c2ccc(C(F)(F)F)nc2C)C(=O)C2CCC1C2)S(=O)(=O)c1ccccc1 (centres unmarked) [Example 1.027] | 2
COCCN(C1=C(C(=O)c2ccc(C(F)(F)F)nc2C)C(=O)C2CCC1C2)S(C)(=O)=O (centres unmarked) [Example 1.012] | 1
CCS(=O)(=O)N(CCOC)C1=C(C(=O)c2ccc(C(F)(F)F)nc2C)C(=O)C2CCC1C2 (centres unmarked) [Example 1.013] | 1
Cc1nc(C(F)(F)F)ccc1C(=O)C1=C(N(Cc2ccccc2)S(=O)(=O)C(C)C)C2CCC(C2)C1=O (centres unmarked) [Example 1.067] | 1
CCS(=O)(=O)N(Cc1ccccc1)C1=C(C(=O)c2ccc(C(F)(F)F)nc2C)C(=O)C2CCC1C2 (centres unmarked) [Example 1.065] | 1

Give measured Pre-emergence action SETARI, rating for every item shown.
1. CCS(=O)(=O)N(CCOC)C1=C(C(=O)c2ccc(C(F)(F)F)nc2C)C(=O)C(C)(C)C(=O)C1(C)C [Example 1.007]
2. COCCN(C1=C(C(=O)c2ccc(C(F)(F)F)nc2C)C(=O)C(C)(C)C(=O)C1(C)C)S(C)(=O)=O [Example 1.001]
3. Cc1nc(C(F)(F)F)ccc1C(=O)C1=C(N(Cc2ccccc2)S(=O)(=O)c2ccccc2)C2CCC(C2)C1=O (centres unmarked) [Example 1.079]

OUTPUT:
1
2
6
